Readings of Globlet cell for the listed molecules
- System: acute self-limiting colitis in mice
- protocol_text: Histological scoring of inflammation, C. rodentium colitis in germ-free mice colonized with B. ovatus (Example 3)
- Type: in vivo
- condition_summary: proximal colon; gavage 3 days; prednisolone forms 1 mg/kg/day, dexamethasone forms 0.6 mg/kg/day; n=2
outcome_measure: Globlet cell

[
  {
    "molecule": "C[C@@H]1C[C@H]2[C@@H]3CCC4=CC(=O)C=C[C@]4(C)[C@@]3(F)[C@@H](O)C[C@]2(C)[C@@]1(O)C(=O)CO[C@@H]1OC(CO)[C@@H](O[C@@H]2OC(CO[C@H]3OC[C@@H](O)C(O)C3O)[C@@H](O[C@@H]3OC(CO[C@H]4OC[C@@H](O)C(O)C4O)[C@@H](O[C@@H]4OC(CO[C@H]5OC[C@@H](O)C(O)C5O)[C@@H](O)C(O)C4O)C(O)C3O)C(O)C2O)C(O)C1O (stereo partly drawn) [XXXG-DEXA, XXXG-β-O-dexamethasone]",
    "outcome_measure": "Globlet cell",
    "measured": 0
  },
  {
    "molecule": "C[C@]12C=CC(=O)C=C1CC[C@@H]1[C@@H]2[C@@H](O)C[C@@]2(C)[C@H]1CC[C@]2(O)C(=O)CO [prednisolone, reference compound]",
    "outcome_measure": "Globlet cell",
    "measured": 0.5
  },
  {
    "molecule": "C[C@@H]1C[C@H]2[C@@H]3CCC4=CC(=O)C=C[C@]4(C)[C@@]3(F)[C@@H](O)C[C@]2(C)[C@@]1(O)C(=O)CO [dexamethasone, reference compound]",
    "outcome_measure": "Globlet cell",
    "measured": 0
  },
  {
    "molecule": "C[C@]12C=CC(=O)C=C1CC[C@@H]1[C@@H]2[C@@H](O)C[C@@]2(C)[C@H]1CC[C@]2(O)C(=O)CO[C@@H]1OC(CO)[C@@H](O[C@@H]2OC(CO[C@H]3OC[C@@H](O)C(O)C3O)[C@@H](O[C@@H]3OC(CO[C@H]4OC[C@@H](O)C(O)C4O)[C@@H](O[C@@H]4OC(CO[C@H]5OC[C@@H](O)C(O)C5O)[C@@H](O)C(O)C4O)C(O)C3O)C(O)C2O)C(O)C1O (stereo partly drawn) [XXXG-PRED, XXXG-β-O-prednisolone]",
    "outcome_measure": "Globlet cell",
    "measured": 0.5
  }
]

---

- System: acute self-limiting colitis in mice
- protocol_text: Histological scoring of inflammation, C. rodentium colitis in germ-free mice colonized with B. ovatus (Example 3)
- Assay type: in vivo
- condition_summary: proximal colon; gavage 3 days; prednisolone forms 1 mg/kg/day, dexamethasone forms 0.6 mg/kg/day; n=2
outcome_measure: Epithelia Hyperplasia

[
  {
    "compound": "C[C@@H]1C[C@H]2[C@@H]3CCC4=CC(=O)C=C[C@]4(C)[C@@]3(F)[C@@H](O)C[C@]2(C)[C@@]1(O)C(=O)CO[C@@H]1OC(CO)[C@@H](O[C@@H]2OC(CO[C@H]3OC[C@@H](O)C(O)C3O)[C@@H](O[C@@H]3OC(CO[C@H]4OC[C@@H](O)C(O)C4O)[C@@H](O[C@@H]4OC(CO[C@H]5OC[C@@H](O)C(O)C5O)[C@@H](O)C(O)C4O)C(O)C3O)C(O)C2O)C(O)C1O (stereo partly shown)",
    "measured": 1.5
  },
  {
    "compound": "C[C@]12C=CC(=O)C=C1CC[C@@H]1[C@@H]2[C@@H](O)C[C@@]2(C)[C@H]1CC[C@]2(O)C(=O)CO[C@@H]1OC(CO)[C@@H](O[C@@H]2OC(CO[C@H]3OC[C@@H](O)C(O)C3O)[C@@H](O[C@@H]3OC(CO[C@H]4OC[C@@H](O)C(O)C4O)[C@@H](O[C@@H]4OC(CO[C@H]5OC[C@@H](O)C(O)C5O)[C@@H](O)C(O)C4O)C(O)C3O)C(O)C2O)C(O)C1O (stereo partly shown)",
    "measured": 3
  },
  {
    "compound": "C[C@]12C=CC(=O)C=C1CC[C@@H]1[C@@H]2[C@@H](O)C[C@@]2(C)[C@H]1CC[C@]2(O)C(=O)CO [prednisolone, reference compound]",
    "measured": 1.5
  },
  {
    "compound": "C[C@@H]1C[C@H]2[C@@H]3CCC4=CC(=O)C=C[C@]4(C)[C@@]3(F)[C@@H](O)C[C@]2(C)[C@@]1(O)C(=O)CO [dexamethasone, reference compound]",
    "measured": 3
  }
]

---

- Test system: acute self-limiting colitis in mice
- protocol_text: Histological scoring of inflammation, C. rodentium colitis in germ-free mice colonized with B. ovatus (Example 3)
- Format: in vivo
- condition_summary: proximal colon; sum of each scoring category; n=2
outcome_measure: Total Score

[
  {
    "compound": "C[C@@H]1C[C@H]2[C@@H]3CCC4=CC(=O)C=C[C@]4(C)[C@@]3(F)[C@@H](O)C[C@]2(C)[C@@]1(O)C(=O)CO [dexamethasone, reference compound]",
    "outcome_measure": "Total Score",
    "measured": 11
  }
]

---

Readings of Total Score for the listed compounds
- Test system: acute self-limiting colitis in mice
- protocol_text: Histological scoring of inflammation, C. rodentium colitis in germ-free mice colonized with B. ovatus (Example 3)
- Type: in vivo
- condition_summary: proximal colon; sum of each scoring category; n=2
outcome_measure: Total Score

[
  {
    "compound": "C[C@]12C=CC(=O)C=C1CC[C@@H]1[C@@H]2[C@@H](O)C[C@@]2(C)[C@H]1CC[C@]2(O)C(=O)CO [prednisolone, reference compound]",
    "outcome_measure": "Total Score",
    "measured": 9
  },
  {
    "compound": "C[C@@H]1C[C@H]2[C@@H]3CCC4=CC(=O)C=C[C@]4(C)[C@@]3(F)[C@@H](O)C[C@]2(C)[C@@]1(O)C(=O)CO[C@@H]1OC(CO)[C@@H](O[C@@H]2OC(CO[C@H]3OC[C@@H](O)C(O)C3O)[C@@H](O[C@@H]3OC(CO[C@H]4OC[C@@H](O)C(O)C4O)[C@@H](O[C@@H]4OC(CO[C@H]5OC[C@@H](O)C(O)C5O)[C@@H](O)C(O)C4O)C(O)C3O)C(O)C2O)C(O)C1O (stereo partly drawn)",
    "outcome_measure": "Total Score",
    "measured": 8
  },
  {
    "compound": "C[C@]12C=CC(=O)C=C1CC[C@@H]1[C@@H]2[C@@H](O)C[C@@]2(C)[C@H]1CC[C@]2(O)C(=O)CO[C@@H]1OC(CO)[C@@H](O[C@@H]2OC(CO[C@H]3OC[C@@H](O)C(O)C3O)[C@@H](O[C@@H]3OC(CO[C@H]4OC[C@@H](O)C(O)C4O)[C@@H](O[C@@H]4OC(CO[C@H]5OC[C@@H](O)C(O)C5O)[C@@H](O)C(O)C4O)C(O)C3O)C(O)C2O)C(O)C1O (stereo partly drawn)",
    "outcome_measure": "Total Score",
    "measured": 11.5
  }
]

---

- System: acute self-limiting colitis in mice
- protocol_text: Histological scoring of inflammation, C. rodentium colitis in germ-free mice colonized with B. ovatus (Example 3)
- Assay type: in vivo
- condition_summary: distal colon; gavage 3 days; prednisolone forms 1 mg/kg/day, dexamethasone forms 0.6 mg/kg/day; n=2

[
  {
    "compound": "C[C@]12C=CC(=O)C=C1CC[C@@H]1[C@@H]2[C@@H](O)C[C@@]2(C)[C@H]1CC[C@]2(O)C(=O)CO[C@@H]1OC(CO)[C@@H](O[C@@H]2OC(CO[C@H]3OC[C@@H](O)C(O)C3O)[C@@H](O[C@@H]3OC(CO[C@H]4OC[C@@H](O)C(O)C4O)[C@@H](O[C@@H]4OC(CO[C@H]5OC[C@@H](O)C(O)C5O)[C@@H](O)C(O)C4O)C(O)C3O)C(O)C2O)C(O)C1O (stereo partly shown)",
    "Inflamm": 1
  },
  {
    "compound": "C[C@@H]1C[C@H]2[C@@H]3CCC4=CC(=O)C=C[C@]4(C)[C@@]3(F)[C@@H](O)C[C@]2(C)[C@@]1(O)C(=O)CO[C@@H]1OC(CO)[C@@H](O[C@@H]2OC(CO[C@H]3OC[C@@H](O)C(O)C3O)[C@@H](O[C@@H]3OC(CO[C@H]4OC[C@@H](O)C(O)C4O)[C@@H](O[C@@H]4OC(CO[C@H]5OC[C@@H](O)C(O)C5O)[C@@H](O)C(O)C4O)C(O)C3O)C(O)C2O)C(O)C1O (stereo partly shown)",
    "Inflamm": 1
  },
  {
    "compound": "C[C@]12C=CC(=O)C=C1CC[C@@H]1[C@@H]2[C@@H](O)C[C@@]2(C)[C@H]1CC[C@]2(O)C(=O)CO [prednisolone, reference compound]",
    "Inflamm": 1.5
  },
  {
    "compound": "C[C@@H]1C[C@H]2[C@@H]3CCC4=CC(=O)C=C[C@]4(C)[C@@]3(F)[C@@H](O)C[C@]2(C)[C@@]1(O)C(=O)CO [dexamethasone, reference compound]",
    "Inflamm": 1.5
  }
]
